- target or test system: IL-2 receptor βγ complex on human cells (pan T cells, PBMC NK cells, NK92 PD1+ cells) (human) (UniProt P14784)
- Sequence (P14784 27-551, chain 1 of 2): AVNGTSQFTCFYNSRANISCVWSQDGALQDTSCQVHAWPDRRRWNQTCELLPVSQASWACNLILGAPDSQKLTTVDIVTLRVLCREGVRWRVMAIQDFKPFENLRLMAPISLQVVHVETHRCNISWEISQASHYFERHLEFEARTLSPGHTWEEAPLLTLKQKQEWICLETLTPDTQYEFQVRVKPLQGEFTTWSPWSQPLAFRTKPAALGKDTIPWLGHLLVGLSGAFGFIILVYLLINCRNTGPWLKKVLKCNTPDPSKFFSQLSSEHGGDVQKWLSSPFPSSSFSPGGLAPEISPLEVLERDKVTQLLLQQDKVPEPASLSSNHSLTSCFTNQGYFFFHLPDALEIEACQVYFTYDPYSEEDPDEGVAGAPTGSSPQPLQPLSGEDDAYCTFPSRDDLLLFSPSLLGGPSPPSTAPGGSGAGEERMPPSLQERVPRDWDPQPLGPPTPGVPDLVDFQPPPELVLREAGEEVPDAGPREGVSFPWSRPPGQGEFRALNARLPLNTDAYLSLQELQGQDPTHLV
- Sequence (P31785 23-369, chain 2 of 2, further chain): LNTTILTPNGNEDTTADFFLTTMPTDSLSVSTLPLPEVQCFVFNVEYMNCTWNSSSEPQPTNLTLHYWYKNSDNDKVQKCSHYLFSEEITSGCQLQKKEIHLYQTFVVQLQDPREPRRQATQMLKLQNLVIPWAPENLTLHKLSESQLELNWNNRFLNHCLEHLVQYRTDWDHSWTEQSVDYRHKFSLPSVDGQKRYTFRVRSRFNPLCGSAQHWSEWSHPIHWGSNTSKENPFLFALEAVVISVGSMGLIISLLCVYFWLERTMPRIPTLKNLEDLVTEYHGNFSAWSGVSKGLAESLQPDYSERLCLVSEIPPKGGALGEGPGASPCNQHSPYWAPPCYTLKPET
- experiment: cell-based or functional assay
Bridges are numbered along the chain shown (N, C = ends). Primed or numbered codes have the meaning given here. [ ]: non-standard residue; d: D form. Yn3(5) = tyrosine residue modified with an azide-capped PEG9 group (O-(PEG9-azido)-tyrosine); Ygp(5) = O-(8x polyethylene glycol-amino)-tyrosine (Tyr-PEG8-amine); Ygp = O-(8x polyethylene glycol-amino)-tyrosine; Yn3 = O-(9x polyethylene glycol-azido)-tyrosine; hSer = N[C@@H](CCO)C(=O)O; Nle = CCCC[C@H](N)C(=O)O
reported property: Average EC50, pSTAT5 assay in NK cells (nM)

[
  {
    "binder": "CMP-319, Matriptase cleaved molecule (ligand, lactam N-33; also: treated with matriptase (cleavage site not given here)) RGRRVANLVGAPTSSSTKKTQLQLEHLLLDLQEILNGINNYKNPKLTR[Nle]L[hSer][Yn3(5)]KF[Ygp(5)][Nle]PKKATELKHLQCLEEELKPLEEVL[hSer]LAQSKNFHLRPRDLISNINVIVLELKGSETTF[hSer]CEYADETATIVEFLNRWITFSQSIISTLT",
    "reported property": "Average EC50, pSTAT5 assay in NK cells",
    "units of measure": "nM",
    "reported result": 0.804
  },
  {
    "binder": "CMP-319, MMP2 cleaved molecule (ligand, lactam N-33; also: treated with MMP2 (cleavage site not given here)) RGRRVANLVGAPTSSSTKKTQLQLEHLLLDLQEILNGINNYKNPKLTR[Nle]L[hSer][Yn3(5)]KF[Ygp(5)][Nle]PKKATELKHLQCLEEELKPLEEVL[hSer]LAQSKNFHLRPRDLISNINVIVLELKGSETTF[hSer]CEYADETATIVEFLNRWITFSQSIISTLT",
    "reported property": "Average EC50, pSTAT5 assay in NK cells",
    "units of measure": "nM",
    "reported result": 0.713
  },
  {
    "binder": "CMP-320, MMP2 cleaved molecule (ligand, lactam N-34; also: treated with MMP2 (cleavage site not given here)) SGRVAPQPLVDAPTSSSTKKTQLQLEHLLLDLQEILNGINNYKNPKLTR[Nle]L[hSer][Yn3(5)]KF[Ygp(5)][Nle]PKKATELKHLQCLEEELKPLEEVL[hSer]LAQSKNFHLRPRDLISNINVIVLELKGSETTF[hSer]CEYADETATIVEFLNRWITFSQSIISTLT",
    "reported property": "Average EC50, pSTAT5 assay in NK cells",
    "units of measure": "nM",
    "reported result": 0.571
  },
  {
    "binder": "CMP-321 (ligand, lactam N-32) SGRVQPLVDAPTSSSTKKTQLQLEHLLLDLQEILNGINNYKNPKLTR[Nle]L[hSer][Yn3(5)]KF[Ygp(5)][Nle]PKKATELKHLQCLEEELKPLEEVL[hSer]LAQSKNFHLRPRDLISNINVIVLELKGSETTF[hSer]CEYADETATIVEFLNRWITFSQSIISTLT",
    "reported property": "Average EC50, pSTAT5 assay in NK cells",
    "units of measure": "nM",
    "reported result": 55.1
  },
  {
    "binder": "CMP-320 (ligand, lactam N-34) SGRVAPQPLVDAPTSSSTKKTQLQLEHLLLDLQEILNGINNYKNPKLTR[Nle]L[hSer][Yn3(5)]KF[Ygp(5)][Nle]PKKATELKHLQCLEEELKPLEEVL[hSer]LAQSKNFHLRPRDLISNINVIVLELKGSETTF[hSer]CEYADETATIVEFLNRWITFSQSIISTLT",
    "reported property": "Average EC50, pSTAT5 assay in NK cells",
    "units of measure": "nM",
    "reported result": 13.2
  },
  {
    "binder": "CMP-318 (ligand, lactam N-32) SGRVANLVGAPTSSSTKKTQLQLEHLLLDLQEILNGINNYKNPKLTR[Nle]L[hSer][Yn3]KF[Ygp][Nle]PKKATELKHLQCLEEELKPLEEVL[hSer]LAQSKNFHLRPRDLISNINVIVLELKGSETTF[hSer]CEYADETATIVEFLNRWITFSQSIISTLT",
    "reported property": "Average EC50, pSTAT5 assay in NK cells",
    "units of measure": "nM",
    "reported result": 37.4
  },
  {
    "binder": "CMP-320, Matriptase cleaved molecule (ligand, lactam N-34; also: treated with matriptase (cleavage site not given here)) SGRVAPQPLVDAPTSSSTKKTQLQLEHLLLDLQEILNGINNYKNPKLTR[Nle]L[hSer][Yn3(5)]KF[Ygp(5)][Nle]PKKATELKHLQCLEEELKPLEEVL[hSer]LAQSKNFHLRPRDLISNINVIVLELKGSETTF[hSer]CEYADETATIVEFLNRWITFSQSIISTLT",
    "reported property": "Average EC50, pSTAT5 assay in NK cells",
    "units of measure": "nM",
    "reported result": 15.7
  }
]

The origin of these recorded values is patent US20240417436A1.
